target: ITK (Homo sapiens); construct: purchased Reaction Biology Corporation; experiment: ITK kinase profiling (BTK protocol); format: biochemical; details: compound 0.3 μM; read-out: ITK @ 0.3 μM (% Inh)
Sequence (Q08881 whole entry): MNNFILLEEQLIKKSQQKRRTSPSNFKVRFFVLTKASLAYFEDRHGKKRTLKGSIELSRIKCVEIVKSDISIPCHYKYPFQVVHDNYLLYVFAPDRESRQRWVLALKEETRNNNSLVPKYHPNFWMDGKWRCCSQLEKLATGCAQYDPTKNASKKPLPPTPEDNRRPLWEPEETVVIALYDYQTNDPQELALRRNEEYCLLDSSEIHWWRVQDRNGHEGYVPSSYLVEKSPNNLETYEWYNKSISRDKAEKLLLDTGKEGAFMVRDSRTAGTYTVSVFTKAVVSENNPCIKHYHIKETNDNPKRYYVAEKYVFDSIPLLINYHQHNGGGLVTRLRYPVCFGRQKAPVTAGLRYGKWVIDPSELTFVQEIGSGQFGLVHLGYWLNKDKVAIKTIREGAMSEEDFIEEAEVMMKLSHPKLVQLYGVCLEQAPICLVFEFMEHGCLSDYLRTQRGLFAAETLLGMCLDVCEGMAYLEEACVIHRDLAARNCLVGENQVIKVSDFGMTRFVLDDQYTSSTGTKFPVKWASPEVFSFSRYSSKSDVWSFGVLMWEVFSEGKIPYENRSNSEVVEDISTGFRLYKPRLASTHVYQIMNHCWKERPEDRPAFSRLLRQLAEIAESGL
Hi, to clarify the labels: fulfilled covers inhibition at 0.3 µM from 30% upward, not fulfilled covers anything below 30%.

Previously resolved entries follow.
{"columns": ["compound string", "assigned class"],
 "data": [
  ["C=CC(=O)N(CCn1nc(-c2cc(O)cc(F)c2)c2c(N)ncnc21)Cc1ccccc1", "not fulfilled"],
  ["C=CC(=O)N(CCn1nc(-c2cc(O)cc(F)c2)c2c(N)ncnc21)c1ccccc1", "fulfilled"],
  ["C=CC(=O)N(CCn1nc(-c2cc(O)cc(F)c2)c2c(N)ncnc21)Cc1ccc(Cl)cc1", "fulfilled"],
  ["C=CC(=O)N(CCn1nc(-c2cc(O)c(F)c(F)c2)c2c(N)ncnc21)Cc1ccc(Cl)cc1", "not fulfilled"],
  ["C=CC(=O)N(CCn1nc(-c2cc(O)cc(F)c2)c2c(N)ncnc21)Cc1ccccc1F", "fulfilled"]
]}

In the following, a different compound is considered.
Hello, I need to know if Nc1ncnc2c1c(-c1cc(O)cc(F)c1)nn2CCNc1ccccc1 has measured inhibition at 0.3 µM not below 30%. Thanks! not fulfilled

* * *

target: PI3Kγ (Homo sapiens, UniProt P48736); construct: purchased Reaction Biology Corporation; assay: PI3K isoform profiling, PI3Kγ (PI3Kδ protocol); format: biochemical; settings: compound 0.3 μM; read-out: PI3Kγ @ 0.3 μM (% Inh)
Sequence (P48736 whole entry, canonical isoform): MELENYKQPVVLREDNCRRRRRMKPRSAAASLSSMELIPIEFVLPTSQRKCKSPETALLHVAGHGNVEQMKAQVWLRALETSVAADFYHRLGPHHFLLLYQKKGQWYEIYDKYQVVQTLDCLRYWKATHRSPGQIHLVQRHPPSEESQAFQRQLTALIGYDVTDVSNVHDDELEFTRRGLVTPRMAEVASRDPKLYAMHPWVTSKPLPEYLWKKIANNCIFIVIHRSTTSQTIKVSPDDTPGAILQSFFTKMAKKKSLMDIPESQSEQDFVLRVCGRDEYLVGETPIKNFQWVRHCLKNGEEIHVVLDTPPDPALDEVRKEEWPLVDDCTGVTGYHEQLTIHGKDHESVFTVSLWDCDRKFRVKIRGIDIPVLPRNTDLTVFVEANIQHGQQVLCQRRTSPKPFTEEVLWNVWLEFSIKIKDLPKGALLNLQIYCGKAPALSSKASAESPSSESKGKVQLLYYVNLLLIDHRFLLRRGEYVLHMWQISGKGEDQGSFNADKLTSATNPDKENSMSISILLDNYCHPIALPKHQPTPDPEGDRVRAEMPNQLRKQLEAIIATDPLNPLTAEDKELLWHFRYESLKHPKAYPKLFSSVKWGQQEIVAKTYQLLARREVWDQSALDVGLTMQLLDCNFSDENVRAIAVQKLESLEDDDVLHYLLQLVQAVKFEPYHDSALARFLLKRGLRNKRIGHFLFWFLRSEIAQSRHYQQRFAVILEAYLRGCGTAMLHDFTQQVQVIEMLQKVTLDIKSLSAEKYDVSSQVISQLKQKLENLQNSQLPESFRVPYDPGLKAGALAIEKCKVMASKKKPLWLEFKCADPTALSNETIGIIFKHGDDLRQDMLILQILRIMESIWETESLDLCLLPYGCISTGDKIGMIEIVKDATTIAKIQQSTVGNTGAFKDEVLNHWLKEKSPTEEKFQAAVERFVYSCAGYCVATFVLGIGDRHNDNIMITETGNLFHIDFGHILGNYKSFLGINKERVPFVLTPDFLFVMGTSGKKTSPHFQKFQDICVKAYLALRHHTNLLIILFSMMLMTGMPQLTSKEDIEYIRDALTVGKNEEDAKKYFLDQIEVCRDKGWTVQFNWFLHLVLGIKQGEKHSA
Below is a list of entries, each paired with its recorded inhibition at 0.3 µM value.
Write the value in % as a bare number.

{"columns": ["molecule", "target", "property measured", "assay result"],
 "data": [
  ["C=CC(=O)N(CCn1nc(-c2cc(O)cc(F)c2)c2c(N)ncnc21)Cc1ccccc1F [Compound 11]", "PI3Kγ (Homo sapiens, UniProt P48736)", "inhibition at 0.3 µM", 21.4],
  ["C=CC(=O)N(CCn1nc(-c2cc(O)cc(F)c2)c2c(N)ncnc21)Cc1ccccc1 [Compound 5]", "PI3Kγ (Homo sapiens, UniProt P48736)", "inhibition at 0.3 µM", 34.9]
]}

Dear colleague, I am looking for the recorded inhibition at 0.3 µM of the following molecule: C=CC(=O)N(CCn1nc(-c2cc(O)cc(F)c2)c2c(N)ncnc21)Cc1ccc(Cl)cc1 [Compound 12] 21.5

Also need C=CC(=O)N(CCn1nc(-c2cc(O)cc(F)c2)c2c(N)ncnc21)Cc1ccc(F)cc1 [Compound 10] , thanks. -3.88

And then C=CC(=O)N(CCn1nc(-c2cc(O)c(F)c(F)c2)c2c(N)ncnc21)Cc1ccc(Cl)cc1 [Compound 16] , what is it? 14.6

How about this molecule: Nc1ncnc2c1c(-c1cc(O)cc(F)c1)nn2CCNc1ccccc1 [Compound 1] 49.7

Then C=CC(=O)N(CCn1nc(-c2cc(O)cc(F)c2)c2c(N)ncnc21)c1ccccc1 [Compound 2] ? -2.49

* * *

Reported inhibition at 0.01 µM by item:
biological target: PI3Kδ (Homo sapiens); construct: purchased Reaction Biology Corporation; experiment: PI3Kδ kinase profiling, HTRF PIP3 displacement assay (Reaction Biology); format: biochemical; conditions: compound 0.01 μM; ATP 10 μM; read-out: PI3Kδ @ 0.01 μM (% Inh)
Sequence (O00329 whole entry, one chain of several): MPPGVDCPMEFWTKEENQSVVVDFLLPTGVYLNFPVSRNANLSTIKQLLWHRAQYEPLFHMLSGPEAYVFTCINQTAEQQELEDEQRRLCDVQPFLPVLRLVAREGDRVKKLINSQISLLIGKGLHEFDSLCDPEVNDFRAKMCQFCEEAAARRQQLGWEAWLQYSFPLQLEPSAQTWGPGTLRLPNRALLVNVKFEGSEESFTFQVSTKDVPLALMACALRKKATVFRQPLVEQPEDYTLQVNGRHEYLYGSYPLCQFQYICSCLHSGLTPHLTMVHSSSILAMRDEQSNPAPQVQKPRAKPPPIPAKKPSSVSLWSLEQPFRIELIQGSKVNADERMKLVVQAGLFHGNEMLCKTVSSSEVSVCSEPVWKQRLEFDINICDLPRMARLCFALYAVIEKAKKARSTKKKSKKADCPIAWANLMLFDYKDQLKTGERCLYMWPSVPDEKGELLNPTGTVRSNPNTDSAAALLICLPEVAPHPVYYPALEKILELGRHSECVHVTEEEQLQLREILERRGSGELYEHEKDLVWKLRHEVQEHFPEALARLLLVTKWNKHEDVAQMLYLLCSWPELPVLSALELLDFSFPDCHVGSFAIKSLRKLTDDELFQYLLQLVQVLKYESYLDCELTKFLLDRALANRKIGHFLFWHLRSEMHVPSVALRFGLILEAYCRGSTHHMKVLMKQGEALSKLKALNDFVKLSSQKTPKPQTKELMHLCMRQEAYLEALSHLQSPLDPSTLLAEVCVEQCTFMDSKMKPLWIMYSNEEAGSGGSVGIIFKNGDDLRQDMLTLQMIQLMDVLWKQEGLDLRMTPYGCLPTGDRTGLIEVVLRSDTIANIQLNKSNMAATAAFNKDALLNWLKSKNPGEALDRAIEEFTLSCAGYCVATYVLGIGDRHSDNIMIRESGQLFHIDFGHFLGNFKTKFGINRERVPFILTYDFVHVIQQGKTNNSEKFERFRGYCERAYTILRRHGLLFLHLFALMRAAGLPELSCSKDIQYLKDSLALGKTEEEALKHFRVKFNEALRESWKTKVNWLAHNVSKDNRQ
Could you give me the number in %? Just the number is fine.

Here's what some known entries look like.
{"columns": ["compound", "inhibition at 0.01 µM (%)"],
 "data": [
  ["C=CC(=O)N(CCn1nc(-c2cc(F)c3c(c2)NCCO3)c2c(N)ncnc21)Cc1ccc(Cl)cc1 [Compound 18]", 20.8],
  ["C=CC(=O)N(CCn1nc(-c2cc(O)cc(F)c2)c2c(N)ncnc21)Cc1ccc(Cl)cc1 [Compound 12]", 37.7],
  ["Nc1ncnc2c1c(-c1cc(O)cc(F)c1)nn2CCNCc1ccccc1 [Compound 4]", 1.78],
  ["Nc1ncnc2c1c(-c1cc(O)c(F)c(F)c1)nn2CCNCc1cccnc1 [Compound 23]", 3.31],
  ["C=CC(=O)N(CCn1nc(-c2ccc(Cl)c(O)c2)c2c(N)ncnc21)Cc1ccc(OC)cc1 [Compound 17]", 13.6],
  ["C=CC(=O)N(CCn1nc(-c2ccc(Oc3ccccc3)cc2)c2c(N)ncnc21)Cc1ccccc1 [Compound 24]", -32.3],
  ["C=CC(=O)N(CCn1nc(-c2cc(O)c(F)c(F)c2)c2c(N)ncnc21)Cc1ccc(Cl)cc1 [Compound 16]", 48.3],
  ["Nc1ncnc2c1c(-c1cc(O)c(F)c(F)c1)nn2CCNc1ncccn1 [Compound 21]", 8.59]
]}

# returns recorded inhibition at 0.01 µM (system: PI3Kδ (Homo sapiens)) for C=CC(=O)N(CCn1cc(-c2ccc(Cl)c(O)c2)c2c(N)ncnc21)Cc1ccc(F)cc1 [Compound 13] 14

Repeat for the following compound: C=CC(=O)N(CCn1nc(-c2ccc(Cl)c(O)c2)c2c(N)ncnc21)Cc1ccc(Cl)cc1 [Compound 15] 7.57

Then C=CC(=O)N(CCn1nc(-c2ccc(Cl)c(O)c2)c2c(N)ncnc21)Cc1ccco1 [Compound 20] ? 17.1

Would you kindly repeat that for C=CC(=O)N(CCn1nc(-c2ccc(Cl)c(O)c2)c2c(N)ncnc21)Cc1ccc(F)cc1 [Compound 14] ? 24.8

* * *

target: BTK (Homo sapiens, UniProt Q06187); construct: purchased Reaction Biology Corporation; experiment: BTK kinase profiling, HotSpot radiometric assay (Reaction Biology); format: biochemical; conditions: compound 1 μM; ATP 10 μM; read-out: BTK @ 1 μM (% Inh)
property measured: inhibition at 1 µM (%)
The reply should be a number in %, with the unit left off.

{"columns": ["compound string", "inhibition at 1 µM, %"],
 "data": [
  ["C=CC(=O)N(CCn1nc(-c2cc(O)cc(F)c2)c2c(N)ncnc21)Cc1ccccc1F", 97.2],
  ["Nc1ncnc2c1c(-c1cc(O)cc(F)c1)nn2CCN(Cc1ccccc1)C(=O)C1CC1", 12.2],
  ["C=CC(=O)N(CCn1nc(-c2cc(F)cc(OC(C)=O)c2)c2c(N)ncnc21)Cc1ccccc1", 91.6]
]}

Item: C=CC(=O)N(CCn1nc(-c2cc(O)cc(F)c2)c2c(N)ncnc21)Cc1ccc(F)cc1 Test system: BTK (Homo sapiens, UniProt Q06187) Read-out: inhibition at 1 µM Value: ? 98.3

Now this one: CCC(=O)N(CCn1nc(-c2cc(O)cc(F)c2)c2c(N)ncnc21)Cc1ccccc1 20.6

* * *

molecular target: PI3Kα (Homo sapiens, UniProt P42336); experiment: PI3K isoform profiling, PI3Kα (PI3Kδ protocol); conditions: 10 dose IC50
Sequence (P42336 whole entry, canonical isoform): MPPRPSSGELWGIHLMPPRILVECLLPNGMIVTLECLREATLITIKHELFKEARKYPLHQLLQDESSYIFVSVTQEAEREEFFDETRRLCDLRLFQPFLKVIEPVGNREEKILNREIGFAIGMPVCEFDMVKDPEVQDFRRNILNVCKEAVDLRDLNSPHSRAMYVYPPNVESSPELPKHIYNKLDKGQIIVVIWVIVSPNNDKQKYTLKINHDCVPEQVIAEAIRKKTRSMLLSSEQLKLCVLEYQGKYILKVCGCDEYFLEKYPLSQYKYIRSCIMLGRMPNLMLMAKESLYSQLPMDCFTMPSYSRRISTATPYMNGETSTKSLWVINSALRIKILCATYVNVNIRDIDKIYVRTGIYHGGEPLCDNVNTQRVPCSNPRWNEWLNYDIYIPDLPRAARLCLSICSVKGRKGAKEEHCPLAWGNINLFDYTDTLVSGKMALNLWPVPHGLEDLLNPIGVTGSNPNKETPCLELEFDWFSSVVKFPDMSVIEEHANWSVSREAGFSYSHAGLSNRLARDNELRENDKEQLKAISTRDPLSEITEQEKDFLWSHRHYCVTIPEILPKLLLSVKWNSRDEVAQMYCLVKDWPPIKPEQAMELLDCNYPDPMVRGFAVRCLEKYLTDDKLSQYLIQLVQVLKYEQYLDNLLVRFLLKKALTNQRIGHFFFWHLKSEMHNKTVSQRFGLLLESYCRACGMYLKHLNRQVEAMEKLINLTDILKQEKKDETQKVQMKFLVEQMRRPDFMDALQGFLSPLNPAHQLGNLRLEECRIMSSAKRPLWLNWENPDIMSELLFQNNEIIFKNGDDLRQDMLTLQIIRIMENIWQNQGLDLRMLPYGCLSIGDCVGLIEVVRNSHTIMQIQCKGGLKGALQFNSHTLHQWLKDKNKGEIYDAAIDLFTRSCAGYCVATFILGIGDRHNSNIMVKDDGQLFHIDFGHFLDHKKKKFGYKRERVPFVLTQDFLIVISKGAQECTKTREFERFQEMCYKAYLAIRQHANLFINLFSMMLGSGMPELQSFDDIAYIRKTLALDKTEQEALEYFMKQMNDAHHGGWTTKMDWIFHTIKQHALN
Sequence (P27986 whole entry partner, canonical isoform): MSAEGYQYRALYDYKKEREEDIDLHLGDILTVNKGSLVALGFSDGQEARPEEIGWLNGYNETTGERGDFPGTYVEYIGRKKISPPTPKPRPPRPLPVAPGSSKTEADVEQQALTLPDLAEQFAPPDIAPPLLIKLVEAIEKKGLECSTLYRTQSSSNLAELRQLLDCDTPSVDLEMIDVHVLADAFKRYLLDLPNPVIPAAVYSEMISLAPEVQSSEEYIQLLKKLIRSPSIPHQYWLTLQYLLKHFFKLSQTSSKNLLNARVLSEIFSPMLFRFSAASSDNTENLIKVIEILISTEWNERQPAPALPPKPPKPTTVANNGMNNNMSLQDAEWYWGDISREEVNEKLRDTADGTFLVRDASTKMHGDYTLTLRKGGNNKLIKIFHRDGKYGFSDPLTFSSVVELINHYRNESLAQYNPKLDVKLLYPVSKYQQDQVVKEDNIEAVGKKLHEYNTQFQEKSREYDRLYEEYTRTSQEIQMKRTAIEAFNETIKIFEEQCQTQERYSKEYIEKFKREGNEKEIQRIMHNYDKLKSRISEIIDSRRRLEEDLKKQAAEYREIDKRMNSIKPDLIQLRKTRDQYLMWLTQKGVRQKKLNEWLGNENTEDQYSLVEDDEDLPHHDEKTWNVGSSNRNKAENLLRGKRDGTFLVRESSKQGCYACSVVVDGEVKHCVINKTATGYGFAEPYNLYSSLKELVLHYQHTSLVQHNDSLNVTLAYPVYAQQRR
property measured: IC50 (nM)
API: value field is a number in nM; no unit string.

Some solved cases for reference:
{"columns": ["compound string", "target", "property measured", "unit spec", "assay result"],
 "data": [
  ["C=CC(=O)N(CCn1nc(-c2cc(O)cc(F)c2)c2c(N)ncnc21)Cc1ccc(F)cc1", "PI3Kα (Homo sapiens, UniProt P42336)", "IC50", "nM", 504],
  ["C=CC(=O)N(CCn1nc(-c2cc(O)cc(F)c2)c2c(N)ncnc21)c1ccccc1", "PI3Kα (Homo sapiens, UniProt P42336)", "IC50", "nM", 4210]
]}

Give PI3Kα (Homo sapiens, UniProt P42336) IC50 for C=CC(=O)N(CCn1nc(-c2cc(O)cc(F)c2)c2c(N)ncnc21)Cc1ccccc1F 3220

* * *

inhibition at 0.01 µM by entry:
molecular target: BTK (Homo sapiens); construct: purchased Reaction Biology Corporation; experiment: BTK kinase profiling, HotSpot radiometric assay (Reaction Biology); assay type: biochemical; settings: compound 0.01 μM; ATP 10 μM; read-out: BTK @ 0.01 μM (% Inh)
Number in %, nothing else.

{"columns": ["compound string", "inhibition at 0.01 µM, %"],
 "data": [
  ["C=CC(=O)N(CCn1nc(-c2ccc(Cl)c(O)c2)c2c(N)ncnc21)Cc1ccco1", 90.3],
  ["C=CC(=O)N(CCn1nc(-c2ccc(Cl)c(O)c2)c2c(N)ncnc21)Cc1ccc(F)cc1", 86.5],
  ["C=CC(=O)N(CCn1nc(-c2ccc(Cl)c(O)c2)c2c(N)ncnc21)Cc1ccc(Cl)cc1", 48.5],
  ["C=CC(=O)N(CCn1cc(-c2ccc(Cl)c(O)c2)c2c(N)ncnc21)Cc1ccc(F)cc1", 95.6],
  ["C=CC(=O)N(CCn1nc(-c2cc(O)c(F)c(F)c2)c2c(N)ncnc21)Cc1ccc(Cl)cc1", 63.4],
  ["C=CC(=O)N(CCn1nc(-c2cc(O)cc(F)c2)c2c(N)ncnc21)Cc1ccc(Cl)cc1", 62.8]
]}

Kindly consider the entry below.
Any idea what inhibition at 0.01 µM was measured for C=CC(=O)N(CCn1nc(-c2cc(F)c3c(c2)NCCO3)c2c(N)ncnc21)Cc1ccc(Cl)cc1 ? 62.5
